Experiment: NCI Yeast Anticancer Drug Screen. Data for the mgt1 strain (AID 153)
Conditions: S. cerevisiae mgt1 mutant growth inhibition; at 1.2 µM; active compounds read high
The panel holds about 79,000 compounds, 15% with a hit somewhere; the sample as a whole holds those more often.
parameter: growth inhibition (%)
# output: bare number, implied unit %

Input line: GET /values?readout=growth inhibition&item= Cc1c(N=Nc2ccc(Cl)cc2)c(C)n(C2OC(CO)C(O)C(O)C2O)c(=S)c1C#N (stereo unspecified)
Output line: -1

Input line: GET /values?readout=growth inhibition&item= CN(C)CCC(=O)c1c[nH]c2ccccc12
Output line: -38

Input line: GET /values?readout=growth inhibition&item= CCOc1ccc2ccc3cccnc3c2n1
Output line: -4

Input line: GET /values?readout=growth inhibition&item= O=S(=O)(Oc1c(Cl)cc(Cl)cc1Cl)c1ccccc1
Output line: -3

Input line: GET /values?readout=growth inhibition&item= C[Si](C)(C)Cc1ccccc1C(=O)O
Output line: 1

Input line: GET /values?readout=growth inhibition&item= [O-]c1c2cc(-[n+]3c(-c4ccccc4)cc(-c4ccccc4)cc3-c3ccccc3)cc1COCCOCCOCCOCCOC2
Output line: -7

----------
Experiment: NCI Yeast Anticancer Drug Screen. Data for the CLN2oe strain (AID 163);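 further: 0% = growth of vehicle-only control cultures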
Settings: S. cerevisiae CLN2oe strain, at 100.0 µM
The panel holds about 79,000 compounds, 15% with a hit somewhere; the sample as a whole holds those more often. Calls of active or inactive are those of the source. No stated cut-off is given here; in the data, active means growth inhibition above about 70%; inactive means the rest.
Respond using exactly one of the listed classes: active, inactive

Input line: Recorded test call requested for Cc1cnccc1N=Nc1ccc(N(C)C)cc1
Output line: inactive

Input line: Recorded test call requested for CN(C)CCC(=O)c1c[nH]c2ccccc12
Output line: inactive

Input line: Recorded test call requested for CCC(C)C(=O)OCC(=O)c1ccc(-c2ccccc2)cc1 (stereo unspecified)
Output line: inactive

Input line: Recorded test call requested for O=C(CCCN1CCC2(CC1)OC(=O)N(c1ccccc1)C2=O)c1ccccc1
Output line: active

Input line: Recorded test call requested for Cc1ccc(SSc2ccc(C)cc2[N+](=O)[O-])c([N+](=O)[O-])c1
Output line: active

Input line: Recorded test call requested for O=C1c2ccccc2C2CCC1c1ccccc12 (stereo unspecified)
Output line: active

----------
Assay: NCI Yeast Anticancer Drug Screen. Data for the rad52 strain (AID 147);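 further: 0% = growth of vehicle-treated control cultures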
Details: S. cerevisiae rad52 mutant growth inhibition; at 3.7 µM
The panel holds about 79,000 compounds, 15% with a hit somewhere; the sample as a whole holds those more often. Calls of active or inactive are those of the source. No stated cut-off is given here; in the data, active means growth inhibition above about 70%; inactive means the rest.
Respond using exactly one of the listed classes: active, inactive

Input line: Recorded test call requested for CC(=O)c1ccc(NCN2C(=O)c3ccccc3C2=O)cc1
Output line: inactive

Input line: Recorded test call requested for Clc1ccc(C(c2ccc(Cl)cc2)N2CCNCC2)cc1
Output line: inactive

Input line: Recorded test call requested for OC(c1ccc(Br)cc1)(c1cccs1)C1CC1 (stereo not drawn)
Output line: inactive

Input line: Recorded test call requested for Cc1cc(NCCCN(C)C)c2ccc3c(ccc4c(NCCCN(C)C)cc(C)nc43)c2n1
Output line: inactive

Input line: Recorded test call requested for O=c1[nH]cc(F)c(=O)[nH]1
Output line: inactive

Input line: Recorded test call requested for Cc1ccc2nc(N/N=C/c3ccc(C)s3)cc(C)c2c1
Output line: inactive

Input line: Recorded test call requested for COc1cc(C(C)(C)C)cc(OC)c1C(O)(c1c(OC)cc(C(C)(C)C)cc1OC)c1c(OC)cc(C(C)(C)C)cc1OC
Output line: inactive

Input line: Recorded test call requested for BrC/C=C/C[P+](c1ccccc1)(c1ccccc1)c1ccccc1
Output line: inactive

Input line: Recorded test call requested for O=C1C=CC(=O)N1c1ccc(Br)cc1Cl
Output line: active

Input line: Recorded test call requested for CCOC(=O)C1=C(C)NC(C)=C(C(=O)OCC)C1c1cccc([N+](=O)[O-])c1
Output line: inactive

Input line: Recorded test call requested for O=C(N/N=C/c1ccc2c(c1)CCC2)c1ccccc1[N+](=O)[O-]
Output line: inactive

Input line: Recorded test call requested for CN1CCN(c2ccc3nc(-c4ccc5nc(-c6ccc(O)cc6)[nH]c5c4)[nH]c3c2)CC1
Output line: inactive

Input line: Recorded test call requested for Cc1ccc(SSc2ccc(C)cc2[N+](=O)[O-])c([N+](=O)[O-])c1
Output line: inactive
